Measured IC50 values are reported for all entries that follow.
test system: LPS-induced IL-1 production; assay: Inhibition of LPS-induced IL-1 production in human whole blood culture; type: cell-based; settings: human whole blood culture, LPS 10 ng/ml, 6 h; IC50 by program calcdemo; read-out: IC50 to inhibit LPS-induced IL-1 production
All answers are understood in mM, so give the number only.

Known IC50 results, listed for orientation:
COC1=C[C@@H]2[C@@H]3Cc4ccc(OC)c(O)c4[C@]2(CCN3C(=O)c2ccc(C)cc2)CC1=O ... 4.9
COc1ccc2c(c1OC)C13CCN(C)C(C2)C1CC=NN(S(=O)(=O)c1ccc(C)cc1)C(O)C3 (stereo not shown) ... 9.5
COC1=C[C@@H]2[C@@H]3Cc4ccc(OC)c(O)c4[C@]2(CCN3C(=O)c2cccnc2)CC1=O ... 0.0088

## Task Query (molecule): COC(=O)c1cccc(C)c1S(=O)(=O)N1CC[C@@]23CC(=O)C(OC)=C[C@@H]2[C@@H]1Cc1ccc(OC)c(O)c13 ; field requested: IC50
## Result 0.1

Data origin, for the record: patent US7932264B2
